system name: T1, human GALR2 receptor (human, UniProt O43603 1-387)
T1 construct: Expressed from plasmid BO29 (with intron) or BO39 (intronless) in COS-7 cells; also called hGALR2; hGalR2
T1 sequence: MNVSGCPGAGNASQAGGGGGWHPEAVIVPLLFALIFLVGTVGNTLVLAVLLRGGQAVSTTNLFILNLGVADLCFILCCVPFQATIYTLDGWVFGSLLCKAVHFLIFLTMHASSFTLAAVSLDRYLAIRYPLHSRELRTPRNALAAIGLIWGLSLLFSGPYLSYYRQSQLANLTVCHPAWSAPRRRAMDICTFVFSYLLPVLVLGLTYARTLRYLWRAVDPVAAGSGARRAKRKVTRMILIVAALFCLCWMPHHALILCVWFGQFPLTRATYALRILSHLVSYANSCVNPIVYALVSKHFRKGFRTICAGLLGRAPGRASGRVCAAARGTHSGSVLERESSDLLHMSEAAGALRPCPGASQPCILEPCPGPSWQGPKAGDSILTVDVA
assay procedure: competition with porcine 125I-galanin, COS-7 membranes (BO29)
Ends that are not written are not given here.
readout type: Ki (nM)
Give the value in nM but do not write nM after it.

The measured Ki associated with GWTLNSAGYLLGPHAIDNHRSFSDKHGLT (peptide, UniProt P10683 33-61, looked up, ends and bridges not checked, mature) [rat galanin] reads 1
